- Tested on: acetylcholine receptor
- Run description: SPR, acetylcholine receptor on CM5 chip, peptide 10 µM
Observable: Binding affinity (RU)

RWQCKR [6mer-2-547] : 135
RGLLRR [6mer-2-552] : 148
RSQLKK [6mer-2-600] : 139
KRLSKK [6mer-2-566] : 139
KQFLRK [6mer-2-597] : 154
KWYTKK [6mer-2-539] : 127
KRVQRR [6mer-2-577] : 139
KGILRR [6mer-2-591] : 146
KVLCKR [6mer-2-537] : 153
KGVYRK [6mer-2-574] : 153
RWLSRK [6mer-2-586] : 121
